Biological target: Serotonin, 5HT2A (human) (Homo sapiens)
Sequence (P28223 whole entry): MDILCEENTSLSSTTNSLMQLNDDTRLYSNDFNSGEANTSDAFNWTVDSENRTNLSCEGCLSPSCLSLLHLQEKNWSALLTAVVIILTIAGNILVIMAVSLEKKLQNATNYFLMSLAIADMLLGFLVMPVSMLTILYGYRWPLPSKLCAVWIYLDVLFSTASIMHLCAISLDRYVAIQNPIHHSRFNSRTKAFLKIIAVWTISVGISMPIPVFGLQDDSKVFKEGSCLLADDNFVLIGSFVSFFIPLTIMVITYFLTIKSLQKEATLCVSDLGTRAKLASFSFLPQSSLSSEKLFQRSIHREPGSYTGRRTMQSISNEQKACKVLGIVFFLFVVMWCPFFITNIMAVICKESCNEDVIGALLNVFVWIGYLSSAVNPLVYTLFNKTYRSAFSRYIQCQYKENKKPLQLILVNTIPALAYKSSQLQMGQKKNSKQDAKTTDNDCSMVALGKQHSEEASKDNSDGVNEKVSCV
Assay: Serotonin, 5HT2A (human) radioligand binding assay ([3H]-Ketanserin)
Conditions: human cortex
Description: The reactions were carried out in 50 mM TRIS-HCl (pH 7.6) at room temperature for 90 minutes. The reaction was terminated by rapid vacuum filtration onto glass fiber filters. […]
Where a name gives a salt, the structure may show the parent alone.
For each entry below, report its pKi value.
For clarity, pKi is expressed as the negative log10 of concentration in mol/L.

Which pKi is reported for this compound? CCOC(=O)CCCOc1ccccc1N1CCN(CCCCOc2ccc3c(c2)NC(=O)CC3)CC1 [Compound 9a, hydrochloride]
6.62

Can you look up the measured pKi of O=C1CCc2ccc(C(=O)OCCCN3CCN(c4cccc(Cl)c4Cl)CC3)cc2N1 [Compound 24b, hydrochloride] for me?
6.83

I have this compound here, O=C1CCc2ccc(COC(=O)CCCN3CCN(c4cccc(Cl)c4Cl)CC3)cc2N1 [Compound 39d] , and I need its recorded pKi.
6.77

###

For each of the molecules below, state its IC50.
target: Dopamine, D2S (human recombinant) (Homo sapiens, UniProt P14416); assay: Dopamine, D2S (human recombinant) radioligand binding assay ([3H]Spiperone); details: human recombinant in CHO cells
Sequence (P14416 1-414 isoform P14416-2): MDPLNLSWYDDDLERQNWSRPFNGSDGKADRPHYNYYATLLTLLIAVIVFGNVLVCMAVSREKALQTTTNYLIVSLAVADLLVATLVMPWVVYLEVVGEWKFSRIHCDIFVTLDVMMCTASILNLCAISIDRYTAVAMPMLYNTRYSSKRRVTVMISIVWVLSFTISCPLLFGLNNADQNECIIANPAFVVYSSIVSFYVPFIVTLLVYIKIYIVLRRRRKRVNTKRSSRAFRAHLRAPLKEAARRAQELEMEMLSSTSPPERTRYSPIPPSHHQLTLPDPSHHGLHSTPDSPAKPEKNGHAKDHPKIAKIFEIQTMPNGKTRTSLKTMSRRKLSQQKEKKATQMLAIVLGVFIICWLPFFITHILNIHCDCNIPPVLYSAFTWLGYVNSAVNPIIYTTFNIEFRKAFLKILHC
Structures can show the parent of a compound that is named as a salt.
Quick reminder: number only, in µM, skip the unit.

Reported IC50, molecule CCOC(=O)CCCOc1ccccc1N1CCN(CCCCOc2ccc3c(c2)NC(=O)CC3)CC1 [Compound 9a, hydrochloride] : ____
0.00583

Query (molecule): O=C1CCc2ccc(COC(=O)CCCN3CCN(c4cccc(Cl)c4Cl)CC3)cc2N1 [Compound 39d] ; field requested: IC50
0.0547

Which value of IC50 has been reported for O=C1CCc2ccc(C(=O)OCCCN3CCN(c4cccc(Cl)c4Cl)CC3)cc2N1 [Compound 24b, hydrochloride] in the records?
0.0729
